target: HCV NS3/4A protease complex, BMS strain (UniProt P27958, species not given/STRAIN_BMS); construct: other: NS3/4A BMS strain; activity range class; numeric values, unit not given; said of H77 and J4L6S; fused on or other part: A three-lysine solubilising tail at the C-terminus of NS4A; A His tag is implied by the pET21b vector and Ni-NTA purification; Both are printed for the H77 and J4L6S constructs and apply to BMS by inference; experiment: FRET peptide assay to monitor HCV NS3/4A proteolytic activity (BMS strain); type: biochemical, Hepatitis C virus (genotype 1a); conditions: read-out: HCV Protease (IC50); NS3/4A BMS strain; activity range class
Sequence (P27958 1027-1657, change not shown, one chain of several): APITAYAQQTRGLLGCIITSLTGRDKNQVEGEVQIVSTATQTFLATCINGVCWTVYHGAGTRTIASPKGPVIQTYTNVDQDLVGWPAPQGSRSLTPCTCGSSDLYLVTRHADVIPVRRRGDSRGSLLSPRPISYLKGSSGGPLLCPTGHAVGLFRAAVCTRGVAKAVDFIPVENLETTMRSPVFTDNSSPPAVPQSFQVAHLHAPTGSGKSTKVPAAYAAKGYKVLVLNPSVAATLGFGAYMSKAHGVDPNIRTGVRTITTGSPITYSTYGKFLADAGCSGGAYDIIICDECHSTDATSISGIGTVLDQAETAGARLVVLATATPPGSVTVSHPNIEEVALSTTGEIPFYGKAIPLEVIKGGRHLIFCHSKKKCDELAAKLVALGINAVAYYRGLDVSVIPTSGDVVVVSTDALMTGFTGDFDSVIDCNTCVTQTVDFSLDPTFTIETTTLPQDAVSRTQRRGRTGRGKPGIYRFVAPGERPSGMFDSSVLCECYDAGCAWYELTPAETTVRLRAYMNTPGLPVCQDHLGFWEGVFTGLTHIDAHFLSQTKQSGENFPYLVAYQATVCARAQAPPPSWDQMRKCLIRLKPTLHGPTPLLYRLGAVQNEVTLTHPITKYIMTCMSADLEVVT
pIC50: −log10 of the molar value.
ATTRIBUTE_MEASURED: pIC50

Example results:
COMPOUND: C=C[C@@H]1C[C@]1(NC(=O)[C@@H]1C[C@@H](Oc2ncc(OC)c3ccc(Cl)cc23)CN1C(=O)C(C)Nc1n[s+]([O-])nc1OCC)C(=O)NS(=O)(=O)C1CC1 (stereo partly drawn)
pIC50: < 6.70

COMPOUND: C=C[C@@H]1C[C@]1(NC(=O)[C@@H]1C[C@@H](Oc2ncc(OC)c3ccc(Cl)cc23)CN1C(=O)[C@@H](Nc1cccc(C(N)=O)c1)C(C)(C)C)C(=O)NS(=O)(=O)C1CC1 [217 first isomer]
pIC50: 7.70 to 9.22

COMPOUND: C=C[C@@H]1C[C@]1(NC(=O)[C@@H]1C[C@@H](Oc2ncc(OC)c3ccc(Cl)cc23)CN1C(=O)[C@H](Nc1ccc(F)c(F)c1)C(C)(C)C)C(=O)NS(=O)(=O)C1CC1 [220 second isomer]
pIC50: < 6.70

COMPOUND: C=C[C@@H]1C[C@]1(NC(=O)[C@@H]1C[C@@H](Oc2ncc(OC)c3ccc(Cl)cc23)CN1C(=O)[C@H](Nc1cccc(C(=O)OC(C)(C)C)c1)C(C)(C)C)C(=O)NS(=O)(=O)C1CC1 [210 second isomer]
pIC50: 6.70 to 7.70

COMPOUND: C=C[C@@H]1C[C@]1(NC(=O)[C@@H]1C[C@@H](Oc2ncc(OC)c3ccc(Cl)cc23)CN1C(=O)[C@@H](Nc1ccc(C(=O)O)cc1)C(C)(C)C)C(=O)NS(=O)(=O)C1CC1 [209 first isomer]
pIC50: 7.70 to 9.22

COMPOUND: C=C[C@@H]1C[C@]1(NC(=O)[C@@H]1C[C@@H](Oc2ncc(OC)c3ccc(Cl)cc23)CN1C(=O)C(Nc1ccc(C(=O)OC(C)(C)C)cc1)C(C)(C)C)C(=O)NS(=O)(=O)C1CC1 (stereo partly drawn) [204 second isomer]
pIC50: < 6.70

COMPOUND: C=C[C@@H]1C[C@]1(NC(=O)[C@@H]1C[C@@H](Oc2nc(N(C)C)cc3cc(OC)ccc23)CN1C(=O)C(Nc1ccccc1)C(C)(C)C)C(=O)NS(=O)(=O)C1CC1 (single isomer, unassigned) [19 first isomer]
pIC50: 7.70 to 9.22

COMPOUND: C=C[C@@H]1C[C@]1(NC(=O)[C@@H]1C[C@@H](Oc2nccc3cc(OC)ccc23)CN1C(=O)C(Nc1ccccn1)C(C)C)C(=O)NS(=O)(=O)C1CC1 (single isomer, unassigned)
pIC50: 6.70 to 7.70

# input for lookup
Problem: # query: pIC50 of entry C=C[C@@H]1C[C@]1(NC(=O)[C@@H]1C[C@@H](Oc2ncc(OC)c3ccc(Cl)cc23)CN1C(=O)[C@@H](Nc1cccc(S(=O)(=O)N(C)C)c1)C(C)(C)C)C(=O)NS(=O)(=O)C1CC1 [219 first isomer]
Result: < 6.70

From: patent US7772180B2
